Tested target: UniProt P13945
Sequence (P13945 whole entry): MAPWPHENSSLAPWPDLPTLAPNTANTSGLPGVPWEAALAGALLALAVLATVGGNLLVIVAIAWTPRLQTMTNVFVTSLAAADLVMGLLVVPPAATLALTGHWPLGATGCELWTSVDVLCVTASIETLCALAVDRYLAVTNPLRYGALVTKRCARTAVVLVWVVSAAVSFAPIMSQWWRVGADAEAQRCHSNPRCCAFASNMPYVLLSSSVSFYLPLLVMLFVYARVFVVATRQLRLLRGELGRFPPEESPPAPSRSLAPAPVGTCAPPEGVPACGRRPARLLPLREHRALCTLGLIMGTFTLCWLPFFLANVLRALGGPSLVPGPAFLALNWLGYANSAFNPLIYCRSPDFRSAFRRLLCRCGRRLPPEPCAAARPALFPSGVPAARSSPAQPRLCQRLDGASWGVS
Assay info: DRUGMATRIX: Adrenergic beta3 radioligand binding (ligand: [125I] Cyanopindolol)
Assay type: cell membranes, HEK293, Membrane
Condition info: Not Active = under 50% inhibition at 10 µM; read-out: IC50
Readout: IC50 (µM)
Form entry: value (µM) — number only.

Return value of IC50 for input Clc1ccccc1C(c1ccccc1)(c1ccccc1)n1ccnc1 , no commentary.
7.21

For the compound CCCCCCCCCc1ccc(O)cc1 , give its measured IC50 value.
4.19

For the compound CC(C)(O)c1ccccc1CC[C@@H](SCC1(CC(=O)O)CC1)c1cccc(/C=C/c2ccc3ccc(Cl)cc3n2)c1 , report IC50.
4.3

---

Tested target: UniProt:P50406
Sequence (P50406 whole entry): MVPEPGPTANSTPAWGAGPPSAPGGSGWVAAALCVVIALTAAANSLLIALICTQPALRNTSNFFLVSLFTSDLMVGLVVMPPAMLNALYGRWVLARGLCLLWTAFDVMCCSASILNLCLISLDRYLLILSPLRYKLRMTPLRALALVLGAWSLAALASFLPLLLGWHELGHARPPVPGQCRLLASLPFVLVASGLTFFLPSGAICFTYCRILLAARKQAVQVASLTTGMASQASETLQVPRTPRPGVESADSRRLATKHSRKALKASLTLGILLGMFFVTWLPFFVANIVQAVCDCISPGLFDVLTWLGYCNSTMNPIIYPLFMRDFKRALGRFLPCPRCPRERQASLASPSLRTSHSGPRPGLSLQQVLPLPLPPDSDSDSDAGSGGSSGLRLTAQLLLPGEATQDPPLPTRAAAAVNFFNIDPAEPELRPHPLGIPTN
Type: cell membranes, HeLa, Membrane
Condition info: read-out: IC50
Readout: pIC50
Hey, just a heads up that pIC50 is the negative log base 10 of the concentration in molar.

# return recorded pIC50 for input CNCCC=C1c2ccccc2CCc2ccccc21
6.26

Name the recorded pIC50 of the compound listed here: Clc1ccccc1C(c1ccccc1)(c1ccccc1)n1ccnc1
4.90

# return recorded pIC50 for entry CN1C[C@H](C(=O)N[C@]2(C)O[C@@]3(O)[C@@H]4CCCN4C(=O)[C@H](Cc4ccccc4)N3C2=O)C=C2c3cccc4[nH]cc(c34)C[C@H]21
8.69

Specify reported pIC50 for the compound shown: CN(C)CCCN1c2ccccc2CCc2ccc(Cl)cc21
6.61

Identify measured pIC50 corresponding to Clc1ccc(C(c2ccccc2Cl)C(Cl)Cl)cc1 (stereo unspecified)
5.85

State, in one line, measured pIC50 of CSc1ccc2c(c1)N(CCC1CCCCN1C)c1ccccc1S2 (stereo unspecified)
7.15

---

Tested target: Histamine H2 receptor (Homo sapiens); further: in other assays of this panel Not Active means under 50% inhibition at 10 µM
Sequence (P25021 whole entry): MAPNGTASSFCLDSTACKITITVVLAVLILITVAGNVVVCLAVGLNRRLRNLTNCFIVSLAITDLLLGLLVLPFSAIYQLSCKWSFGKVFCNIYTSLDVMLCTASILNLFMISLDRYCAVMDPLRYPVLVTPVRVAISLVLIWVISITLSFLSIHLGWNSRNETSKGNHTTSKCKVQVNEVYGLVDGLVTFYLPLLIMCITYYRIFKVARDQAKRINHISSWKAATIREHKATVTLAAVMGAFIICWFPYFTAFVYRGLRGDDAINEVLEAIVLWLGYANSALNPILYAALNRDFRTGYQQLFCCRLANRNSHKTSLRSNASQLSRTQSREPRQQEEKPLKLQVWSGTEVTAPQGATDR
Format: cell membranes, CHO-K1, Membrane
Condition info: cho-k1
Where a SMILES comes first, the peptide text is derived from it. Bridges are numbered along the chain shown (N, C = ends). [ ]: non-standard residue; d: D form. The star is where a group is joined. Ileψ(thiazoline)Cys = CC[C@H](C)[C@H](N)C1=N[C@H](C(=O)*)CS1; dOrn = NCCC[C@@H](N)C(=O)O
Readout: IC50

Molecule	Tested target	IC50
O=[N+]([O-])c1cc([As](=O)(O)O)ccc1O	Histamine H2 receptor (Homo sapiens)	Not Active
NC(CO)(CO)CO	Histamine H2 receptor (Homo sapiens)	Not Active
CN1C[C@H](C(=O)N[C@]2(C)O[C@@]3(O)[C@@H]4CCCN4C(=O)[C@H](Cc4ccccc4)N3C2=O)C=C2c3cccc4[nH]cc(c34)C[C@H]21	Histamine H2 receptor (Homo sapiens)	Not Active
CN(C)[C@@H]1C(O)=C(C(N)=O)C(=O)[C@@]2(O)C(O)=C3C(=O)c4c(O)cccc4[C@@](C)(O)[C@H]3C[C@@H]12	Histamine H2 receptor (Homo sapiens)	Not Active
CN1C(C(=O)Nc2ccccn2)=C(O)c2ccccc2S1(=O)=O	Histamine H2 receptor (Homo sapiens)	Not Active

Fill in reported IC50 for this entry: CC(=O)S[C@@H]1CC2=CC(=O)CC[C@]2(C)[C@H]2CC[C@@]3(C)[C@@H](CC[C@@]34CCC(=O)O4)[C@H]12
Not Active

For the molecule CC[C@H](C)[C@H](N)C1=N[C@H](C(=O)N[C@@H](CC(C)C)C(=O)N[C@H](CCC(=O)O)C(=O)N[C@H](C(=O)N[C@H]2CCCCNC(=O)[C@H](CC(N)=O)NC(=O)[C@@H](CC(=O)O)NC(=O)[C@H](Cc3cnc[nH]3)NC(=O)[C@@H](Cc3ccccc3)NC(=O)[C@H]([C@@H](C)CC)NC(=O)[C@@H](CCCN)NC2=O)[C@@H](C)CC)CS1 [BACITRACIN] ({Ileψ(thiazoline)Cys}-L[dE]IK[dOrn]I[dF]H[dD]N; lactam 4-C) , report IC50.
Not Active

Read off the recorded IC50 for CN1CCC[C@H]1c1cccnc1
Not Active

Read off the recorded IC50 for Cc1ccc(C(=O)C(C)CN2CCCCC2)cc1 (centres undefined)
Not Active

---

Tested target: UniProtKB P33032
Sequence (P33032 whole entry): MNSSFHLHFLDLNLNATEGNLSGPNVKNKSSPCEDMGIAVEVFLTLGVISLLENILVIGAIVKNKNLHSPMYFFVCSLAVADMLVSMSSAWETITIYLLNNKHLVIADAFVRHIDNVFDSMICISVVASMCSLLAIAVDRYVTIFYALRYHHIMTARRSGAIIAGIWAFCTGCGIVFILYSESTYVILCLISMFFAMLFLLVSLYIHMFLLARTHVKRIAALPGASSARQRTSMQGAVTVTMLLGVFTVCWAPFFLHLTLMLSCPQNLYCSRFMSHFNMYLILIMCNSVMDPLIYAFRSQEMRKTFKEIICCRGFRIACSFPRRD
Format: cell membranes, HEK293, Membrane
Condition info: hek293
Readout: IC50

Look over these answered cases.
In [3]: df
Out[3]:
                                   molecule  readout  reported_value
0  CC1(C)S[C@@H]2[C@H](NC(=O)[C@H](NC(=O)N3CCNC3=O)c3ccccc3)C(=O)N2[C@H]1C(=O)O [AZLOCILLIN]     IC50      Not Active
1  CN(C)[C@@H]1C(O)=C(C(N)=O)C(=O)[C@@]2(O)C(O)=C3C(=O)c4c(O)cccc4[C@@](C)(O)[C@H]3C[C@@H]12 [TETRACYCLINE]     IC50      Not Active
2  COc1ccc(C(CN(C)C)C2(O)CCCCC2)cc1 (stereo not drawn) [VENLAFAXINE]     IC50      Not Active
3  Cn1cnc([N+](=O)[O-])c1Sc1ncnc2nc[nH]c12 [AZATHIOPRINE]     IC50      Not Active
4  CC(=O)[C@@]1(O)CC[C@H]2[C@@H]3C[C@H](C)C4=CC(=O)C=C[C@]4(C)[C@@]3(F)[C@@H](O)C[C@@]21C [FLUOROMETHOLONE]     IC50      Not Active

Fill in IC50 for record Oc1c(I)cc(I)c2cccnc12 [IODOQUINOL]
Not Active

Fill in reported IC50 for this entry: C=C(C)[C@@H]1[C@H]2OC(=O)[C@@H]1[C@]1(O)C[C@H]3O[C@]34C(=O)O[C@H]2[C@]14C [PICROTOXININ]
Not Active

Supply measured IC50 of CCCSc1ccc2nc(NC(=O)OC)[nH]c2c1 [ALBENDAZOLE] in your reply.
Not Active

---

Tested target: 5-hydroxytryptamine receptor 2B (Homo sapiens, UniProt P41595); further: in other assays of this panel Not Active means under 50% inhibition at 10 µM
Sequence (P41595 whole entry): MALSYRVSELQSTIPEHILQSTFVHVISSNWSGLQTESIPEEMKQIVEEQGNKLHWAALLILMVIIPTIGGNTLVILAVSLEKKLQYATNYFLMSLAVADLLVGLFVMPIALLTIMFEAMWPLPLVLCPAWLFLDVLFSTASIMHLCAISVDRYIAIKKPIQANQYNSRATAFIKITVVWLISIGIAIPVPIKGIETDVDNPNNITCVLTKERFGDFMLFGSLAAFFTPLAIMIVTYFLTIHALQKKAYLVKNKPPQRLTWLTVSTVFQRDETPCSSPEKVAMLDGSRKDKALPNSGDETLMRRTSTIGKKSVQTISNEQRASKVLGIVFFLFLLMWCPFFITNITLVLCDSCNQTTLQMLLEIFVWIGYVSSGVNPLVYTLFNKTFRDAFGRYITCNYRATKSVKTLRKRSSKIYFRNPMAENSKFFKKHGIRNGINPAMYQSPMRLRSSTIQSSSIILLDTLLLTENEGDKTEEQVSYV
Format: cell membranes, CHO-K1, Membrane
Condition info: cho-k1
Readout: IC50

Some solved entries appear below for comparison.
                substance  reported_value
0              IVERMECTIN      Not Active
1  GOLD SODIUM THIOMALATE      Not Active
2             CARBOPLATIN      Not Active
3               CISPLATIN      Not Active

Field: next substance
Give IC50 for OXALIPLATIN
Not Active

---

Assay info: DRUGMATRIX: Sigma2 radioligand binding (ligand: [3H] Ifenprodil)
Assay type: cell membranes, Rattus norvegicus, Wistar, Brain, Membrane
Condition info: Not Active = under 50% inhibition at 10 µM

Compound	Ki
Cc1cc(NS(=O)(=O)c2ccc(N)cc2)no1	Not Active
CC(=O)OCC(=O)[C@@]1(OC(C)=O)[C@@H](C)C[C@H]2[C@@H]3C[C@H](F)C4=CC(=O)C=C[C@]4(C)[C@@]3(F)[C@@H](O)C[C@@]21C [DIFLORASONE DIACETATE]	Not Active
CC(C)(C)NC(=O)[C@@H]1CN(Cc2cccnc2)CCN1C[C@@H](O)C[C@@H](Cc1ccccc1)C(=O)N[C@H]1c2ccccc2C[C@H]1O.O	Not Active

---

Assay info: DRUGMATRIX: Phosphodiesterase PDE3 enzyme inhibition (substrate: [3H]cAMP + cAMP)
Format: tissue-based, Homo sapiens
Condition info: platelet; Not Active = under 50% inhibition at 10 µM; read-out: IC50
Readout: IC50 (µM)
The answer is to be given in µM; state only the numeric part.

Tell me IC50 reported for CISPLATIN
46.3

---

Tested target: Sodium-dependent noradrenaline transporter (Homo sapiens)
Sequence (P23975 whole entry): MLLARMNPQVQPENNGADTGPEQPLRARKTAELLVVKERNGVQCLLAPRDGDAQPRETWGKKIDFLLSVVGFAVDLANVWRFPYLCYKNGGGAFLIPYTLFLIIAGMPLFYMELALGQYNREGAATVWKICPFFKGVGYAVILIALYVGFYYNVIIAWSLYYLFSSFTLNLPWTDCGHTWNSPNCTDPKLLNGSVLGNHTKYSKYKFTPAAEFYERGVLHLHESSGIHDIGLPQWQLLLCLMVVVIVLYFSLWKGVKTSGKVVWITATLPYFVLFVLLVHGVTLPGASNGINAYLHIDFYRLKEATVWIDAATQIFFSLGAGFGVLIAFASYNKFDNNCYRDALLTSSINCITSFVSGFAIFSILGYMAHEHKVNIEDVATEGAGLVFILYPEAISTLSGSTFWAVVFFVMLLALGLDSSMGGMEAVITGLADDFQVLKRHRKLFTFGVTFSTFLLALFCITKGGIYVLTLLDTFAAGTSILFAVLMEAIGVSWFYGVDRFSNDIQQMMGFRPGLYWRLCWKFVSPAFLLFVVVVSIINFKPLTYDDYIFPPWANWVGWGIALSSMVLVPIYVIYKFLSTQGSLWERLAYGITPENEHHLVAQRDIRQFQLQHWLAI
Assay info: DRUGMATRIX: Norepinephrine Transporter radioligand binding (ligand: [125I] RTI-55)
Assay type: cell membranes, MDCK, Membrane
Condition info: mdck; Not Active = under 50% inhibition at 10 µM; read-out: Ki
Readout: pKi
Quick note: pKi values are minus log10 of concentrations in mol/L.

Complete the entry with pKi for IVERMECTIN
5.41

---

Assay info: DRUGMATRIX: Nicotinic Acetylcholine radioligand binding (ligand: [125I] Epibatidine)
Format: cell membranes, Membrane
Condition info: imr-32; Not Active = under 50% inhibition at 10 µM
Readout: Ki

Molecule	Reported value
NCC[C@H](O)C(=O)N[C@@H]1C[C@H](N)[C@@H](O[C@H]2O[C@H](CN)[C@@H](O)[C@H](O)[C@H]2O)[C@H](O)[C@H]1O[C@H]1O[C@H](CO)[C@@H](O)[C@H](N)[C@H]1O	Not Active
COc1ccc(C(CN(C)C)C2(O)CCCCC2)cc1 (centres undefined)	Not Active
NS(=O)(=O)c1cc2c(cc1Cl)NCNS2(=O)=O [HYDROCHLOROTHIAZIDE]	Not Active
COC(=O)c1ccc(O)cc1	Not Active

Where do these numbers come from? They come from ChEMBL document CHEMBL1909046.
